Assay Method Text: Modulation of GABAA alpha1beta1gamma2S receptor (unknown origin) expressed in Xenopus laevis oocytes assessed as potentiation of EC3 to 10 GABA-induced chloride ion current at holding potential -70 mV by two-microelectrode voltage clamp assay
Assay type: cell-based
Assay Conditions: Homo sapiens
Quantity Measured: pEC50
Keep in mind that pEC50 stands for -log10 of concentration in molar terms.

Problem: Which pEC50 reading was recorded for the compound COc1cc(O)cc(CCc2cccc(O)c2)c1 ?
Solution: 4.18

* * *

Species on record: Rattus norvegicus
Assay Method Text: Allosteric modulation of rat GABAA alpha1beta2gamma2S receptor expressed in Xenopus laevis oocytes assessed as potentiation of GABA-induced chloride ion current at holding potential -70 mV at 100 uM by two-microelectrode voltage clamp assay relative to GABA-treated control
Format: cell-based
Quantity Measured: Activity

Problem: What value of measured Activity is listed for C(=C\c1ccccc1)/c1ccccc1 ?
Solution: -11.3%

Problem: Reported Activity for Oc1ccc(/C=C/c2cc(O)cc(O)c2)cc1 : what is it?
Solution: 122%

Next:
Problem: Name the recorded Activity for CC(=O)Oc1ccc(/C=C/c2cc(OC(C)=O)cc(OC(C)=O)c2)cc1 .
Solution: 123%

Problem: Using the record for COc1cc(O)cc(CCc2cccc(O)c2)c1 , report its Activity.
Solution: 628%
